Assay: refractive index (Na D-line) (dimensionless)
Details: 298.15 K; 101.33 kPa; Liquid; Standard Abbe refractometry
Measure name: refractive index

1. CCO | 1.35941
2. CCOC(C)=O [ethyl acetate] | 1.36978
3. O | 1.3325
4. CCCCCO | 1.4077
